- Tested system: SB-204269 binding site
- Method notes: Inhibition of [3H]-SB 204269 binding to rat forebrain membranes.
- Type: cell membranes, Membrane
# cutoff -6 applies to Log Ki; >= gives met, < gives not met

INSERT INTO results (compound, assigned_class) VALUES
  ('COC(=O)c1ccc2c(c1)C(NC(=O)c1ccc(F)cc1)C(O)C(C)(C)O2 (configuration not stated)', 'not met'),
  ('CC(=O)c1cccc2c1OC(C)(C)C(O)C2NC(=O)c1ccc(F)cc1 (configuration not stated)', 'met'),
  ('CC(=O)c1ccc2c(c1)[C@H](NC(=O)c1cccc(I)c1)[C@@H](O)C(C)(C)O2', 'not met'),
  ('CC(=O)c1ccc2c(c1)C(NC(=O)c1ccc(Cl)cc1)C(O)C(C)(C)O2 (configuration not stated)', 'not met'),
  ('CC(=O)c1ccc2c(c1)[C@H](NC(=O)c1ccccc1Cl)[C@@H](O)C(C)(C)O2', 'not met');

* * *

- System: Mus musculus
- Method notes: Percentage increase in seizure threshold at dose of 10 mg/kg in mouse maximal electroshock seizure threshold (MEST) model after po administration
- Type: functional
Metric: Increase (%)

INSERT INTO assay_data (compound, metric, recorded_number) VALUES
  ('CC1(C)Oc2ccc(C#N)cc2[C@H](NC(=O)c2ccc(F)cc2)[C@H]1O', 'Increase', 41),
  ('CC(=O)c1ccc2c(c1)C(NC(=O)c1ccc(Cl)cc1)C(O)C(C)(C)O2 (configuration not stated)', 'Increase', 55),
  ('CC(=O)c1ccc2c(c1)[C@H](NC(=O)c1cccc(I)c1)[C@@H](O)C(C)(C)O2', 'Increase', 51),
  ('CC(=O)c1ccc2c(c1)[C@@H](NC(=O)c1ccc(F)cc1)[C@H](O)C(C)(C)O2', 'Increase', 8),
  ('CC1(C)Oc2ccc(C(F)(F)C(F)(F)F)cc2[C@H](NC(=O)c2ccc(F)cc2)[C@H]1O', 'Increase', -8),
  ('CC1(C)Oc2ccc(S(=O)(=O)c3ccccc3)cc2C(NC(=O)c2ccc(F)cc2)C1O (configuration not stated)', 'Increase', -7),
  ('CC1(C)Oc2ccc(F)cc2C(NC(=O)c2ccc(F)cc2)C1O (configuration not stated)', 'Increase', 10);
